target: Alpha-1D adrenergic receptor (Homo sapiens); experiment: Tested for binding affinity against recombinant human Alpha-1D adrenergic receptor using [125I]-HEAT in competition binding assay
Sequence (P25100 whole entry): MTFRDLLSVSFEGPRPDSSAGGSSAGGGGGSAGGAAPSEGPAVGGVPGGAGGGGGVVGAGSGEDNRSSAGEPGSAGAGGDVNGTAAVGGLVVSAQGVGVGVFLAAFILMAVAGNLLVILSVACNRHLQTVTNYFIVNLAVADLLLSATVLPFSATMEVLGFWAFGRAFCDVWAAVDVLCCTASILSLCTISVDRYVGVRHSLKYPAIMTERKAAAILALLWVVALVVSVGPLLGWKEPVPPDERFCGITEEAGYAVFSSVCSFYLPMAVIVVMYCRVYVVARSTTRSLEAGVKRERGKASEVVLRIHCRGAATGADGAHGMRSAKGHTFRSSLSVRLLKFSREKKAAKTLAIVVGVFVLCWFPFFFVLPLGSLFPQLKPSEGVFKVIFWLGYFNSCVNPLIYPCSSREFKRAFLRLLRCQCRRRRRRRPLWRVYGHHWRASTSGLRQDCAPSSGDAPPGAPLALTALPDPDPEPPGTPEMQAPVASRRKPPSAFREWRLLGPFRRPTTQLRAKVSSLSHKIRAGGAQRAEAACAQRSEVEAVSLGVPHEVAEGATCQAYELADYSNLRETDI
Here the recorded pKi is given for each entry.
Kindly note that pKi refers to -log10 of the concentration in mol/L and answer with the value alone.

given-smiles	pKi
C[C@H]1OC(=O)N(C(=O)NCCCN2CCC(c3ccc(F)cc3)CC2)[C@@H]1c1ccc(F)c(F)c1	6.71

Read the next record carefully.
Look at this compound and give its reported pKi. C[C@H]1OC(=O)N(C(=O)NCCCN2CCC(c3ccc(F)cc3)CC2)[C@H]1c1ccc(F)c(F)c1 7.04
